biological target: TRKA (Homo sapiens (Human)); test: Isolated TRK enzyme assay (HTRF KinEASE-TK), PV3144 TrkA enzyme assay; settings: arithmetic mean where more than one reading
measurement name: IC50 (nM)

Examples with their reported IC50 follow.
compound	IC50 / nM
CC(C)n1cc(C(=O)c2cncc(NC(=O)Cn3cc(C4CC4)nn3)c2)c2cncc(F)c21	82.4
CC(CO)n1cc(C(=O)c2cncc(NC(=O)Cc3ccc(C(F)(F)F)cc3)c2)c2cncc(F)c21 (single isomer, unassigned) [Example 222]	16.4
Cc1cc(C(C)C)nn1CC(=O)Nc1cncc(C(=O)c2cn(C(C)C)c3ccncc23)c1	39.5

[P] CC(C)c1cn(CC(=O)Nc2cc(C(=O)c3cn(C(C)C)c4ccncc34)ccn2)nn1
[Q] CC(C)(CO)n1cc(C(=O)c2cncc(NC(=O)Cn3ccc(C(F)(F)F)n3)c2)c2cncc(F)c21
[R] Cc1cc(CC(=O)Nc2cc(C(=O)c3cn(C(C)C)c4ccncc34)ccn2)[nH]n1
[S] CC(C)c1ccnn1CC(=O)Nc1cncc(C(=O)c2cn(C(C)C)c3ccncc23)c1
Inquiry: Number of compounds to sort: 4. Sort criterion: IC50, ascending. Please list the labels in the order you were asked to rank them.
Reply text: Q, P, R, S

* * *

biological target: TRKA (Homo sapiens (Human), UniProt P04629); assay: Isolated TRK enzyme assay (HTRF KinEASE-TK), PV3144 TrkA enzyme assay; assay type: biochemical; settings: arithmetic mean where more than one reading
Sequence (P04629 441-796): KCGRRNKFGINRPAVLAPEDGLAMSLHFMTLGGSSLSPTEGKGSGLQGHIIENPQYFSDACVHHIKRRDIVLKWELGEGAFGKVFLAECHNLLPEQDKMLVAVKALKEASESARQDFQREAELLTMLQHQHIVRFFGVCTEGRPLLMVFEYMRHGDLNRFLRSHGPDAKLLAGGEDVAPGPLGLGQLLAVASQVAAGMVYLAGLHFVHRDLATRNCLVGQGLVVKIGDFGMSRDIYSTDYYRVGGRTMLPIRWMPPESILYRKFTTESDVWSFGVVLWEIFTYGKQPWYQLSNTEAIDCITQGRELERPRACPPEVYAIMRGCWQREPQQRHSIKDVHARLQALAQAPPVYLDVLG
measurement name: IC50 (nM)

Examples with their reported IC50 follow.
compound	numeric result
CC(C)n1cc(C(=O)c2ccnc(NC(=O)Cn3ccnc3)c2)c2cnccc21	7450
CC(C)(CO)n1cc(C(=O)c2cncc(NC(=O)Cn3cc(C4CC4)nn3)c2)c2cncc(F)c21	24
CC(C)n1cc(C(=O)c2ccnc(NC(=O)Cc3ccc(C(F)(F)F)c(F)c3)c2)c2cnccc21	8.49
CC(CO)n1cc(C(=O)c2cncc(NC(=O)Cn3cc(C(F)(F)F)cn3)c2)c2cncc(F)c21 (single isomer, unassigned) [Example 227]	24.3
CC(C)(CO)n1cc(C(=O)c2cc(NC(=O)Cn3ccc(C(F)(F)F)n3)ccn2)c2cnccc21	14

[a] Cc1ccn(CC(=O)Nc2cncc(C(=O)c3cn(C(C)C)c4ccncc34)c2)n1
[b] COCc1nc(CC(=O)Nc2cncc(C(=O)c3cn(C(C)C)c4ccncc34)c2)c(C2CC2)o1
Inquiry: Given the listed records, identify the one among a and b with higher IC50. Please reply using the label of the selected record.
Reply text: a

[a] Cc1cc(CC(=O)Nc2cncc(C(=O)c3cn(C(C)C)c4ccncc34)c2)[nH]n1
[b] CC(C)n1cc(C(=O)c2ccnc(NC(=O)Cc3cccc(OC(F)(F)F)c3)c2)c2cnccc21
[c] N#Cc1ccc(CC(=O)Nc2cc(C(=O)c3cn(C4COC4)c4ccncc34)ccn2)cc1C(F)(F)F
[d] Cc1cc(C(F)(F)F)nn1CC(=O)Nc1cc(C(=O)c2cn(C(C)C)c3ccncc23)ccn1
[e] O=C(Cn1nccn1)Nc1cc(C(=O)c2cn(CCO)c3ccncc23)ccn1
Inquiry: Thanks in advance: please rank these 5 entries by IC50, highest to lowest. Please list the labels in the order you were asked to rank them.
Reply text: e, a, c, d, b
(e: 9800 nM, a: 268 nM, c: 138 nM, d: 13.8 nM, b: 7.41 nM)

[I] Cc1cc(C(F)(F)F)nn1CC(=O)Nc1cncc(C(=O)c2cn(C(C)CO)c3ccncc23)c1 (single isomer, unassigned) [Example 63]
[II] CC(CO)n1cc(C(=O)c2cncc(NC(=O)Cn3cc(C(F)(F)F)nn3)c2)c2cnccc21 (single isomer, unassigned) [Example 59]
[III] CC(C)n1ncc(CC(=O)Nc2cc(C(=O)c3cn(CCO)c4ccncc34)ccn2)c1C(F)(F)F
Inquiry: Thanks in advance: please rank these 3 entries by IC50, highest to lowest. Please list the labels in the order you were asked to rank them.
Reply text: III, II, I
